Tested on: HO-1-N-1;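 also: growth inhibition of human HO-1-N-1 cells, read out with a cell viability assay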
Assay: cells
Type: functional, cell-based, Homo sapiens
Details: Homo sapiens, HO-1-N-1
Description: SANGER: Inhibition of human HO-1-N-1 cell growth in a cell viability assay.
propertyMeasured: IC50

Reference set, count: 7
{"molecule": "O=c1cc(-c2cccc3c2Sc2ccccc2S3)oc(N2CCOCC2)c1 [KU-55933]", "result": "> 10 µM"}
{"molecule": "C[C@]1(O)C[C@@H](c2nc(-c3ccc4ccc(-c5ccccc5)nc4c3)c3c(N)nccn32)C1 [LINSITINIB]", "result": "> 2.56 µM"}
{"molecule": "O=C1N=C(NCc2cccs2)S/C1=C\\c1ccc2ncccc2c1", "result": "> 5 µM"}
{"molecule": "CC(=O)O[C@@]12CO[C@@H]1C[C@H](O)[C@@]1(C)C(=O)[C@H](O)C3=C(C)[C@@H](OC(=O)[C@H](O)[C@@H](NC(=O)OC(C)(C)C)c4ccccc4)C[C@@](O)([C@@H](OC(=O)c4ccccc4)[C@H]21)C3(C)C [DOCETAXEL]", "result": "0.000281 µM"}
{"molecule": "CC(=O)O[C@@H]1[C@@H](OC(C)=O)[C@@H](O)[C@H](Oc2c(-c3ccc(O)cc3)oc3cc(O)cc(O)c3c2=O)O[C@H]1C", "result": "> 10 µM"}
{"molecule": "Cc1ccc(Nc2nccc(N(C)c3ccc4c(C)n(C)nc4c3)n2)cc1S(N)(=O)=O [PAZOPANIB]", "result": "> 8 µM"}
{"molecule": "O=C(c1cc(Cc2n[nH]c(=O)c3ccccc23)ccc1F)N1CCN(C(=O)C2CC2)CC1 [OLAPARIB]", "result": "> 5 µM"}

Req: # lookup: IC50 of CN(Cc1cnc2nc(N)nc(N)c2n1)c1ccc(C(=O)N[C@@H](CCC(=O)O)C(=O)O)cc1 [METHOTREXATE]
Resp: > 0.2 µM
